Sourced from patent US20030129222A1

Tested on: 8226 myeloma, Sens (drug-sensitive)
assay_details: Cytotoxicity in tumor cell culture, SRB assay
Type: cell-based, human
assay_context: drug-sensitive line; read-out: IC50 against human mouse tumors, 8226 myeloma Sens
pIC50: −log10 of the molar value.
// label 0 strictly below 5 in pIC50; label 1 otherwise

[
  {
    "molecule": "N#CC1CN1C(=O)Nc1ccc(Cl)c(Cl)c1 (centres unmarked) [Compound 18]",
    "test_system": "8226 myeloma, Sens (drug-sensitive)",
    "label": "label 1"
  },
  {
    "molecule": "CCCCNC(=O)N1CC1C#N (centres unmarked) [Compound 8, 2-Cyanoaziridine-1-(N-butyl) carboxamide]",
    "test_system": "8226 myeloma, Sens (drug-sensitive)",
    "label": "label 0"
  },
  {
    "molecule": "N#CC1CN1C(=O)Nc1ccc(S(N)(=O)=O)cc1 (centres unmarked) [Compound 22]",
    "test_system": "8226 myeloma, Sens (drug-sensitive)",
    "label": "label 0"
  },
  {
    "molecule": "CCNC(=O)N1CC1C#N (centres unmarked) [Compound 7, 2-Cyanoaziridine-1-(N-ethyl) carboxamide]",
    "test_system": "8226 myeloma, Sens (drug-sensitive)",
    "label": "label 0"
  },
  {
    "molecule": "CCOC(=O)c1ccc(NC(=O)N2CC2C#N)cc1 (centres unmarked) [Compound 19]",
    "test_system": "8226 myeloma, Sens (drug-sensitive)",
    "label": "label 1"
  }
]

====

Recorded pIC50, one value per entry.
Tested on: 8226 myeloma, Sens (drug-sensitive)
assay_details: Cytotoxicity in tumor cell culture, SRB assay
Format: cell-based, human
assay_context: drug-sensitive line; read-out: IC50 against human mouse tumors, 8226 myeloma Sens
pIC50: −log10 of the molar value.

[
  {
    "compound": "N#CC1CN1C(=O)Nc1ccc(F)cc1 (stereo not drawn)",
    "censoring_qualifier": "=",
    "pIC50": 5.30
  },
  {
    "compound": "N#CC1CN1C(=O)NC1CCCCC1 (stereo not drawn)",
    "censoring_qualifier": "=",
    "pIC50": 4.44
  },
  {
    "compound": "N#CC1CN1C(=O)Nc1ccc(Cl)cc1Cl (stereo not drawn)",
    "censoring_qualifier": "=",
    "pIC50": 5.33
  },
  {
    "compound": "CCOC(=O)CNC(=O)N1CC1C#N (stereo not drawn)",
    "censoring_qualifier": "=",
    "pIC50": 4.60
  },
  {
    "compound": "CC(=O)c1cccc(NC(=O)N2CC2C#N)c1 (stereo not drawn)",
    "censoring_qualifier": "<",
    "pIC50": 4.41
  },
  {
    "compound": "CC(C)(C)NC(=O)N1CC1C#N (stereo not drawn)",
    "censoring_qualifier": "=",
    "pIC50": 3.92
  }
]

====

Recorded IC50, one value per entry.
Tested on: A375 melan
assay_details: Cytotoxicity in tumor cell culture, SRB assay
Type: cell-based, human
assay_context: Homo sapiens, A-375; read-out: IC50 against human mouse tumors, A375 melan

[
  {
    "compound": "N#CC1CN1C(=O)Nc1ccccc1 (stereo not drawn) [Compound 13, 2-Cyanoaziridine-1-(N-phenyl)carboxamide]",
    "test_system": "A375 melan",
    "IC50 / µM": 11
  },
  {
    "compound": "N=C1NC(=O)N2CC12 (stereo not drawn) [Imexon]",
    "test_system": "A375 melan",
    "IC50 / µM": 324
  },
  {
    "compound": "CNC(=O)N1CC1C#N (stereo not drawn)",
    "test_system": "A375 melan",
    "IC50 / µM": 17
  }
]

====

System: WiDr colon, Sens
assay_details: Cytotoxicity in tumor cell culture, SRB assay
Type: cell-based
assay_context: read-out: IC50 against human mouse tumors, WiDr colon Sens
pIC50: −log10 of the molar value.
Recorded pIC50, one value per entry.

[
  {
    "compound": "N#CC1CN1C(=O)Nc1ccc(Cl)c(Cl)c1 (centres unmarked)",
    "test_system": "WiDr colon, Sens",
    "censoring_qualifier": "=",
    "pIC50": 5.15
  },
  {
    "compound": "CC(=O)Oc1ccccc1NC(=O)N1CC1C#N (centres unmarked)",
    "test_system": "WiDr colon, Sens",
    "censoring_qualifier": "=",
    "pIC50": 5.48
  },
  {
    "compound": "N#CC1CN1C(=O)Nc1ccc(C(F)(F)F)cc1 (centres unmarked)",
    "test_system": "WiDr colon, Sens",
    "censoring_qualifier": "=",
    "pIC50": 5.89
  },
  {
    "compound": "N#CC1CN1C(=O)Nc1cccnc1 (centres unmarked)",
    "test_system": "WiDr colon, Sens",
    "censoring_qualifier": "=",
    "pIC50": 5.22
  },
  {
    "compound": "CCCCNC(=O)N1CC1C#N (centres unmarked) [Compound 8, 2-Cyanoaziridine-1-(N-butyl) carboxamide]",
    "test_system": "WiDr colon, Sens",
    "censoring_qualifier": "=",
    "pIC50": 4.85
  },
  {
    "compound": "CCOC(=O)c1ccc(NC(=O)N2CC2C#N)cc1 (centres unmarked)",
    "test_system": "WiDr colon, Sens",
    "censoring_qualifier": "=",
    "pIC50": 5.60
  },
  {
    "compound": "N#CC1CN1C(=O)NC1CCCCC1 (centres unmarked)",
    "test_system": "WiDr colon, Sens",
    "censoring_qualifier": "=",
    "pIC50": 5.62
  },
  {
    "compound": "N#CC1CN1C(=O)Nc1ccc(S(N)(=O)=O)cc1 (centres unmarked)",
    "test_system": "WiDr colon, Sens",
    "censoring_qualifier": "<",
    "pIC50": 4.42
  },
  {
    "compound": "CCNC(=O)N1CC1C#N (centres unmarked) [Compound 7, 2-Cyanoaziridine-1-(N-ethyl) carboxamide]",
    "test_system": "WiDr colon, Sens",
    "censoring_qualifier": "=",
    "pIC50": 5.40
  },
  {
    "compound": "N#CC1CN1C(=O)Nc1ccc(F)cc1 (centres unmarked)",
    "test_system": "WiDr colon, Sens",
    "censoring_qualifier": "=",
    "pIC50": 5.68
  },
  {
    "compound": "CC(C)(C)NC(=O)N1CC1C#N (centres unmarked)",
    "test_system": "WiDr colon, Sens",
    "censoring_qualifier": "=",
    "pIC50": 3.74
  },
  {
    "compound": "N#CC1CN1C(=O)Nc1ccc(Cl)cc1Cl (centres unmarked)",
    "test_system": "WiDr colon, Sens",
    "censoring_qualifier": "=",
    "pIC50": 5.66
  },
  {
    "compound": "N#CC1CN1C(=O)Nc1cccc2ccccc12 (centres unmarked)",
    "test_system": "WiDr colon, Sens",
    "censoring_qualifier": "=",
    "pIC50": 5.62
  },
  {
    "compound": "CCOC(=O)CNC(=O)N1CC1C#N (centres unmarked)",
    "test_system": "WiDr colon, Sens",
    "censoring_qualifier": "=",
    "pIC50": 4.51
  },
  {
    "compound": "N#CC1CN1C(=O)Nc1ccc([N+](=O)[O-])cc1 (centres unmarked)",
    "test_system": "WiDr colon, Sens",
    "censoring_qualifier": "=",
    "pIC50": 5.37
  },
  {
    "compound": "N#CC1CN1C(=O)NCc1ccccc1 (centres unmarked)",
    "test_system": "WiDr colon, Sens",
    "censoring_qualifier": "=",
    "pIC50": 5.28
  },
  {
    "compound": "CC(=O)c1cccc(NC(=O)N2CC2C#N)c1 (centres unmarked)",
    "test_system": "WiDr colon, Sens",
    "censoring_qualifier": "=",
    "pIC50": 4.40
  }
]

====

System: WiDr colon, res
assay_details: Cytotoxicity in tumor cell culture, SRB assay
Type: cell-based
assay_context: Homo sapiens, WiDr, read-out: IC50 against human mouse tumors, WiDr colon res
measured_parameter: IC50

[
  {
    "compound": "N#CC1CN1C(N)=O (stereo not shown) [Compound 1, 2-cyanoaziridine-1-carboxamide]",
    "meas_value": "> 280 µM"
  }
]

====

Test system: 8226 myeloma, Res (imexon-resistant)
assay_details: Cytotoxicity in tumor cell culture, SRB assay
Type: cell-based
assay_context: Homo sapiens, read-out: IC50 against human mouse tumors, 8226 myeloma Res
pIC50: −log10 of the molar value.
measured_parameter: pIC50

[
  {
    "compound": "N#CC1CN1C(N)=O (stereo not shown) [Compound 1, 2-cyanoaziridine-1-carboxamide]",
    "measured_parameter": "pIC50",
    "meas_value": 3.36
  }
]
